*1 amine or outer side, *2 acyl side, *3 side chain or, on linkers, in order; H or OH if unused. Where a SMILES comes first, the peptide text is derived from it. The star is where a group is joined. X1 = O=C(CCCC[C@@H]1SC[C@@H]2NC(=O)N[C@@H]21)NCCCOCCOCCOCCCN*; Suc = O=C(CCC(=O)[*:2])[*:1]
Entries with reported Kd on UniProt Q9Y2H9
Sequence (Q9Y2H9 967-1055 limits assumed): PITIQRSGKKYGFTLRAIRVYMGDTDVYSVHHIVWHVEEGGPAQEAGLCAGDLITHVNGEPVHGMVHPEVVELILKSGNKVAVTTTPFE
Return type: number; implicit unit µM.

[in] Consider the compound CC[C@H](C)[C@H](NC(=O)[C@H](CCC(N)=O)NC(=O)[C@@H](NC(=O)[C@H](Cc1c[nH]cn1)NC(=O)[C@H](CCC(N)=O)NC(=O)[C@H](CC(=O)O)NC(=O)[C@H](CCC(=O)O)NC(=O)[C@H](CC(=O)O)NC(=O)CCC(=O)NCCCOCCOCCOCCCNC(=O)CCCC[C@@H]1SC[C@@H]2NC(=O)N[C@@H]21)[C@@H](C)O)C(=O)N[C@H](C(=O)N[C@@H](CCCCNC(C)=O)C(=O)N[C@H](C(=O)O)C(C)C)[C@@H](C)O [PTEN_Ac] and give its measured Kd.
[out] 26.3

[in] Fill in: Kd of CC[C@H](C)[C@H](NC(=O)[C@H](CCC(N)=O)NC(=O)[C@@H](NC(=O)[C@H](Cc1c[nH]cn1)NC(=O)[C@H](CCC(N)=O)NC(=O)[C@H](CC(=O)O)NC(=O)[C@H](CCC(=O)O)NC(=O)[C@H](CC(=O)O)NC(=O)CCC(=O)NCCCOCCOCCOCCCNC(=O)CCCC[C@@H]1SC[C@@H]2NC(=O)N[C@@H]21)[C@@H](C)O)C(=O)N[C@H](C(=O)N[C@@H](CCCCN)C(=O)N[C@H](C(=O)O)C(C)C)[C@@H](C)O [PTEN_11] is ___
[out] 38.5

[in] # get_value(readout='Kd', item= CC[C@H](C)[C@H](NC(=O)[C@H](CCC(N)=O)NC(=O)[C@@H](NC(=O)[C@H](Cc1c[nH]cn1)NC(=O)[C@H](CCC(N)=O)NC(=O)[C@H](CC(=O)O)NC(=O)[C@H](CCC(=O)O)NC(=O)[C@H](CC(=O)O)NC(=O)[C@H](Cc1ccccc1)NC(=O)[C@@H]1CCCN1C(=O)CCC(=O)NCCCOCCOCCOCCCNC(=O)CCCC[C@@H]1SC[C@@H]2NC(=O)N[C@@H]21)[C@@H](C)O)C(=O)N[C@H](C(=O)N[C@@H](CCCCN)C(=O)N[C@H](C(=O)O)C(C)C)[C@@H](C)O [PTEN_13] ({X1-Suc}-PFDEDQHTQITKV-OH) )
[out] 7.64

[in] I have this compound here, CC[C@H](C)[C@H](NC(=O)[C@H](CCC(N)=O)NC(=O)[C@@H](NC(=O)[C@H](Cc1c[nH]cn1)NC(=O)[C@H](CCC(N)=O)NC(=O)[C@H](CC(=O)O)NC(=O)[C@H](CCC(=O)O)NC(=O)[C@H](CC(=O)O)NC(=O)CCC(=O)NCCCOCCOCCOCCCNC(=O)CCCC[C@@H]1SC[C@@H]2NC(=O)N[C@@H]21)[C@@H](C)O)C(=O)N[C@H](C(=O)N[C@@H](CCCNC(=N)N)C(=O)N[C@H](C(=O)O)C(C)C)[C@@H](C)O [PTEN_KR] ({X1-Suc}-DEDQHTQITRV-OH) , and I need its recorded Kd.
[out] 32.2

---

System: 266 human PDZ domains (PDZome)
Method notes: Holdup assay (chromatographic retention, PDZome-binding profile, BI)
Parameters: key: binding intensity: 0.00 = no binding, 1.00 = maximal binding
Applied conditions: PDZ domain PDZRN4-2
*1 amine or outer side, *2 acyl side, *3 side chain or, on linkers, in order; H or OH if unused. Where a SMILES comes first, the peptide text is derived from it. The star is where a group is joined. X1 = O=C(CCCC[C@@H]1SC[C@@H]2NC(=O)N[C@@H]21)NCCCOCCOCCOCCCN*; Suc = O=C(CCC(=O)[*:2])[*:1]
Value kind: BI
Provide a numeric answer; units are not to be included.

[in] Request body: readout BI, system 266 human PDZ domains (PDZome), query CC[C@H](C)[C@H](NC(=O)[C@H](CCC(N)=O)NC(=O)[C@@H](NC(=O)[C@H](Cc1c[nH]cn1)NC(=O)[C@H](CCC(N)=O)NC(=O)[C@H](CC(=O)O)NC(=O)[C@H](CCC(=O)O)NC(=O)[C@H](CC(=O)O)NC(=O)CCC(=O)NCCCOCCOCCOCCCNC(=O)CCCC[C@@H]1SC[C@@H]2NC(=O)N[C@@H]21)[C@@H](C)O)C(=O)N[C@H](C(=O)N[C@@H](CCCNC(=N)N)C(=O)N[C@H](C(=O)O)C(C)C)[C@@H](C)O [PTEN_KR] ({X1-Suc}-DEDQHTQITRV-OH) . Return the value.
[out] -0.071

---

*1 amine or outer side, *2 acyl side, *3 side chain or, on linkers, in order; H or OH if unused. Where a SMILES comes first, the peptide text is derived from it. The star is where a group is joined. X1 = O=C(CCCC[C@@H]1SC[C@@H]2NC(=O)N[C@@H]21)NCCCOCCOCCOCCCN*; Suc = O=C(CCC(=O)[*:2])[*:1]
Value kind: pKd
Schema: pKd number; meaning minus log10 of the concentration expressed in molar units.

[in] Request body: readout pKd, system SNX27 PDZ 1 (Homo sapiens), query CC[C@H](C)[C@H](NC(=O)[C@H](CCC(N)=O)NC(=O)[C@@H](NC(=O)[C@H](Cc1c[nH]cn1)NC(=O)[C@H](CCC(N)=O)NC(=O)[C@H](CC(=O)O)NC(=O)[C@H](CCC(=O)O)NC(=O)[C@H](CC(=O)O)NC(=O)CCC(=O)NCCCOCCOCCOCCCNC(=O)CCCC[C@@H]1SC[C@@H]2NC(=O)N[C@@H]21)[C@@H](C)O)C(=O)N[C@H](C(=O)N[C@@H](CCCCNC(C)=O)C(=O)N[C@H](C(=O)O)C(C)C)[C@@H](C)O [PTEN_Ac] . Return the value.
[out] 5.39

[in] Which pKd is reported with SNX27 PDZ 1 (Homo sapiens) for this entry: CC[C@H](C)[C@H](NC(=O)[C@H](CCC(N)=O)NC(=O)[C@@H](NC(=O)[C@H](Cc1c[nH]cn1)NC(=O)[C@H](CCC(N)=O)NC(=O)[C@H](CC(=O)O)NC(=O)[C@H](CCC(=O)O)NC(=O)[C@H](CC(=O)O)NC(=O)CCC(=O)NCCCOCCOCCOCCCNC(=O)CCCC[C@@H]1SC[C@@H]2NC(=O)N[C@@H]21)[C@@H](C)O)C(=O)N[C@H](C(=O)N[C@@H](CCCCN)C(=O)N[C@H](C(=O)O)C(C)C)[C@@H](C)O [PTEN_11] ?
[out] 4.86

[in] Record CC[C@H](C)[C@H](NC(=O)[C@H](CCC(N)=O)NC(=O)[C@@H](NC(=O)[C@H](Cc1c[nH]cn1)NC(=O)[C@H](CCC(N)=O)NC(=O)[C@H](CC(=O)O)NC(=O)[C@H](CCC(=O)O)NC(=O)[C@H](CC(=O)O)NC(=O)[C@H](Cc1ccccc1)NC(=O)[C@@H]1CCCN1C(=O)CCC(=O)NCCCOCCOCCOCCCNC(=O)CCCC[C@@H]1SC[C@@H]2NC(=O)N[C@@H]21)[C@@H](C)O)C(=O)N[C@H](C(=O)N[C@@H](CCCCN)C(=O)N[C@H](C(=O)O)C(C)C)[C@@H](C)O [PTEN_13] ({X1-Suc}-PFDEDQHTQITKV-OH) : what is its pKd with SNX27 PDZ 1 (Homo sapiens)?
[out] 5.25

---

Experimental system: DLG2-1 (Homo sapiens)
Method notes: Holdup assay, DLG2-1
Type: binding
Applied conditions: DLG2-1
*1 amine or outer side, *2 acyl side, *3 side chain or, on linkers, in order; H or OH if unused. Where a SMILES comes first, the peptide text is derived from it. The star is where a group is joined. X1 = O=C(CCCC[C@@H]1SC[C@@H]2NC(=O)N[C@@H]21)NCCCOCCOCCOCCCN*; Suc = O=C(CCC(=O)[*:2])[*:1]
Value kind: BI

[in] State its BI on DLG2-1 (Homo sapiens): CC[C@H](C)[C@H](NC(=O)[C@H](CCC(N)=O)NC(=O)[C@@H](NC(=O)[C@H](Cc1c[nH]cn1)NC(=O)[C@H](CCC(N)=O)NC(=O)[C@H](CC(=O)O)NC(=O)[C@H](CCC(=O)O)NC(=O)[C@H](CC(=O)O)NC(=O)CCC(=O)NCCCOCCOCCOCCCNC(=O)CCCC[C@@H]1SC[C@@H]2NC(=O)N[C@@H]21)[C@@H](C)O)C(=O)N[C@H](C(=O)N[C@@H](CCCCN)C(=O)N[C@H](C(=O)O)C(C)C)[C@@H](C)O [PTEN_11]
[out] 0.034

[in] Recorded BI for CC[C@H](C)[C@H](NC(=O)[C@H](CCC(N)=O)NC(=O)[C@@H](NC(=O)[C@H](Cc1c[nH]cn1)NC(=O)[C@H](CCC(N)=O)NC(=O)[C@H](CC(=O)O)NC(=O)[C@H](CCC(=O)O)NC(=O)[C@H](CC(=O)O)NC(=O)[C@H](Cc1ccccc1)NC(=O)[C@@H]1CCCN1C(=O)CCC(=O)NCCCOCCOCCOCCCNC(=O)CCCC[C@@H]1SC[C@@H]2NC(=O)N[C@@H]21)[C@@H](C)O)C(=O)N[C@H](C(=O)N[C@@H](CCCCN)C(=O)N[C@H](C(=O)O)C(C)C)[C@@H](C)O [PTEN_13] ({X1-Suc}-PFDEDQHTQITKV-OH) with DLG2-1 (Homo sapiens), please?
[out] 0.035

[in] Form field: BI recorded for CC[C@H](C)[C@H](NC(=O)[C@H](CCC(N)=O)NC(=O)[C@@H](NC(=O)[C@H](Cc1c[nH]cn1)NC(=O)[C@H](CCC(N)=O)NC(=O)[C@H](CC(=O)O)NC(=O)[C@H](CCC(=O)O)NC(=O)[C@H](CC(=O)O)NC(=O)CCC(=O)NCCCOCCOCCOCCCNC(=O)CCCC[C@@H]1SC[C@@H]2NC(=O)N[C@@H]21)[C@@H](C)O)C(=O)N[C@H](C(=O)N[C@@H](CCCNC(=N)N)C(=O)N[C@H](C(=O)O)C(C)C)[C@@H](C)O [PTEN_KR] ({X1-Suc}-DEDQHTQITRV-OH) with DLG2-1 (Homo sapiens) (enter value)
[out] 0.191

[in] Identify the measured BI of CC[C@H](C)[C@H](NC(=O)[C@H](CCC(N)=O)NC(=O)[C@@H](NC(=O)[C@H](Cc1c[nH]cn1)NC(=O)[C@H](CCC(N)=O)NC(=O)[C@H](CC(=O)O)NC(=O)[C@H](CCC(=O)O)NC(=O)[C@H](CC(=O)O)NC(=O)CCC(=O)NCCCOCCOCCOCCCNC(=O)CCCC[C@@H]1SC[C@@H]2NC(=O)N[C@@H]21)[C@@H](C)O)C(=O)N[C@H](C(=O)N[C@@H](CCCCNC(C)=O)C(=O)N[C@H](C(=O)O)C(C)C)[C@@H](C)O [PTEN_Ac] for DLG2-1 (Homo sapiens).
[out] 0.211
